Assay overview: Phase I clinical trial, human plasma pharmacokinetics of oral Compound 1
Assay type: in vivo
Test parameters: both sexes, human, plasma, po, 240 mg, Day 21, Cohort 6 (BID), N = 2, 240 mg, oral twice daily
Description: A human clinical study was initiated at a starting dose of 50 mg/m^2. Subjects had recurrent cancer refractory to available systemic therapy. Compound 1 was administered daily by mouth in tablet form for 21 consecutive days in a 28 day cycle to each enrolled subject. […] Plasma was collected pre-dose only for cycle 1 day 8. […]
Endpoint name: Tmax (h)
# unit: h | format: bare number

Looking for the measured Tmax of C[C@H](O)C(=O)N1CCC(CCn2c(Sc3cc4c(cc3Br)OCO4)nc3c(N)ncnc32)CC1 [Compound 1] , can you help?
1.5

---

Assay overview: Phase I clinical trial, human plasma pharmacokinetics of oral Compound 1
Assay type: in vivo
Test parameters: human, plasma, po, 245 mg/m^2, Day 01, Cohort 4, N = 6, 245 mg/m^2 (340-540 mg), oral daily
Endpoint name: Tmax (h)
# unit: h | format: bare number

Looking for the measured Tmax of C[C@H](O)C(=O)N1CCC(CCn2c(Sc3cc4c(cc3Br)OCO4)nc3c(N)ncnc32)CC1 [Compound 1] , can you help?
2.5

---

Assay overview: Phase I clinical trial, human plasma pharmacokinetics of oral Compound 1
Format: in vivo
Test parameters: human, plasma, po, 165 mg/m^2, Day 21, Cohort 3, Subject 301, 165 mg/m^2 (300 mg), oral daily
Protocol: A human clinical study was initiated at a starting dose of 50 mg/m^2. Subjects had recurrent cancer refractory to available systemic therapy. Compound 1 was administered daily by mouth in tablet form for 21 consecutive days in a 28 day cycle to each enrolled subject. […] Plasma was collected pre-dose only for cycle 1 day 8. […]
Endpoint name: Tmax (h)
# unit: h | format: bare number

Looking for the measured Tmax of C[C@H](O)C(=O)N1CCC(CCn2c(Sc3cc4c(cc3Br)OCO4)nc3c(N)ncnc32)CC1 [Compound 1] , can you help?
8

---

Assay overview: Phase I clinical trial, human plasma pharmacokinetics of oral Compound 1
Assay type: in vivo
Test parameters: human, plasma, po, 340 mg/m^2, Day 21, Cohort 5, Subject 503, 340 mg/m^2 (620 mg), oral daily
Endpoint name: Cmax (ng/mL)
# unit: ng/mL | format: bare number

Looking for the measured Cmax of `C[C@H](O)C(=O)N1CCC(CCn2c(Sc3cc4c(cc3Br)OCO4)nc3c(N)ncnc32)CC1` , can you help?
25600

---

Assay overview: Oral pharmacokinetics in female Sprague Dawley rats, single dose versus two doses
Type: in vivo
Test parameters: female, Sprague Dawley, rat, plasma; 25 mg/kg oral, two doses 12 h apart; read-out: C24hr
Endpoint name: concentration at 24 h (ng/mL)
# unit: ng/mL | format: bare number

Looking for the measured concentration at 24 h of `C[C@H](O)C(=O)N1CCC(CCn2c(Sc3cc4c(cc3Br)OCO4)nc3c(N)ncnc32)CC1` , can you help?
46.7

---

Assay overview: Phase I clinical trial, human plasma pharmacokinetics of oral Compound 1
Assay type: in vivo
Test parameters: human, plasma, po, 340 mg/m^2, Day 21, Cohort 5 (BID), Subject 508, 340 mg/m^2 (330 mg), oral twice daily
Endpoint name: half-life (h)
# unit: h | format: bare number

Looking for the measured half-life of `C[C@H](O)C(=O)N1CCC(CCn2c(Sc3cc4c(cc3Br)OCO4)nc3c(N)ncnc32)CC1` , can you help?
6.7

---

Assay overview: Phase I clinical trial, human plasma pharmacokinetics of oral Compound 1
Type: in vivo
Test parameters: human, plasma, po, 340 mg/m^2, Day 21, Cohort 5 (BID), 340 mg/m^2 (330 mg), oral twice daily; read-out: Vz/F
Endpoint name: Vd/F (L)
# unit: L | format: bare number

Looking for the measured Vd/F of `C[C@H](O)C(=O)N1CCC(CCn2c(Sc3cc4c(cc3Br)OCO4)nc3c(N)ncnc32)CC1` , can you help?
45.7

---

Assay overview: Phase I clinical trial, human plasma pharmacokinetics of oral Compound 1
Format: in vivo
Test parameters: human, plasma, po, 165 mg/m^2, Day 01, Cohort 3, Subject 301, 165 mg/m^2 (300 mg), oral daily
Endpoint name: Tmax
Just so you know, I need the unit written after the number.

Looking for the measured Tmax of `C[C@H](O)C(=O)N1CCC(CCn2c(Sc3cc4c(cc3Br)OCO4)nc3c(N)ncnc32)CC1` , can you help?
4 h

---

Assay overview: Phase I clinical trial, human plasma pharmacokinetics of oral Compound 1
Assay type: in vivo
Test parameters: human, plasma, po, 50 mg/m^2, Day 19, Cohort 1, Subject 101, 50 mg/m^2 (100 mg), oral daily
Endpoint name: Cmax
Just so you know, I need the unit written after the number.

Looking for the measured Cmax of `C[C@H](O)C(=O)N1CCC(CCn2c(Sc3cc4c(cc3Br)OCO4)nc3c(N)ncnc32)CC1` , can you help?
1700 ng/mL
